Source listed as patent US20240360126A1.

Target: human TLR7 (Homo sapiens, UniProt Q9NYK1)
Sequence (Q9NYK1 27-1049): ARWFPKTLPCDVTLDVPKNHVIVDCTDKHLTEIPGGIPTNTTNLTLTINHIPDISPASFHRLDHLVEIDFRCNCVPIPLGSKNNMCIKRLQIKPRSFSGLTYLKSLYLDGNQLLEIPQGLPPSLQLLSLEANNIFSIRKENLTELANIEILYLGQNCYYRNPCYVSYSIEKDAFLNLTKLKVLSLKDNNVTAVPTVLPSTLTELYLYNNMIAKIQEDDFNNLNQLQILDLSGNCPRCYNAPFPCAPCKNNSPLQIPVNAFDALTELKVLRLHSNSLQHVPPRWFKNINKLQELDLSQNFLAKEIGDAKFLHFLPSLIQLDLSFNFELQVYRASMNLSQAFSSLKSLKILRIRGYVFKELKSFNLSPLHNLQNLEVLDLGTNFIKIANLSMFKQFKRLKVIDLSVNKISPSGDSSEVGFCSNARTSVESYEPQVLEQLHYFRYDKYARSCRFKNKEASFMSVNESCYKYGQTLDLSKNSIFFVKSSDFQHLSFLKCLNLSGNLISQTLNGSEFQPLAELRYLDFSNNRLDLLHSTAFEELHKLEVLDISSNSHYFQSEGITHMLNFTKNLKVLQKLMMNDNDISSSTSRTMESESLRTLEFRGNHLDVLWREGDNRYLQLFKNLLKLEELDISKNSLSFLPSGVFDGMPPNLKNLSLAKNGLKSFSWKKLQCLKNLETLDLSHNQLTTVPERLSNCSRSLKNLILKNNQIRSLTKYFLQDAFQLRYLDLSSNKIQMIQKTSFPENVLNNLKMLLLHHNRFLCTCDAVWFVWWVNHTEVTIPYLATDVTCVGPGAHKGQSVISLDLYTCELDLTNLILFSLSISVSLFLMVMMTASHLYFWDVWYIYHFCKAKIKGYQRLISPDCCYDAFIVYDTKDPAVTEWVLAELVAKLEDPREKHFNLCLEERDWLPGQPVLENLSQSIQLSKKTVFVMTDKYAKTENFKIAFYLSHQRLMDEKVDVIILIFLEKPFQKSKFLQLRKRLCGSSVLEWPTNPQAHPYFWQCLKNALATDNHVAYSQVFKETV
Experiment: HEK293-Blue-hTLR-7 cells assay
Conditions: HEK293-Blue-hTLR7 cells, R848 stimulation, 20 hrs; read-out: HEK/hTLR7 IC50
# strict inequality: IC50 < 10 nM yields condition met, everything else yields condition not met

Record excerpt, results attached:
Cc1cc(N2CCC(c3cnc(N4CCNCC4)cn3)CC2)c2cnn(C)c2n1 [Example 3]; condition not met
Cc1cc(N2CCC(c3ccc(N4CCNCC4)cc3)CC2)c2cnn(C)c2n1 [Example 1]; condition not met
Cc1cc(N2CCC(c3ncc(N4CCNCC4)nc3C)[C@H](C)C2)c2cnn(C)c2n1 (single isomer, unassigned) [Example 23]; condition not met
Cc1cc(N2CCNCC2)ncc1C1CCN(c2ccnc3c2cnn3C)CC1 [Example 6]; condition met
Cc1cc(N2CC[C@H](c3ccc(N4CC(C)(N)C4)cn3)[C@@H](C)C2)c2cnn(C)c2n1 [Example 43]; condition not met

Does this molecule meet the criterion IC50 < 10 nM? Cc1cc(N2CC[C@@H](c3ncc(N4CC5(CNCCO5)C4)cc3C)[C@H](C)C2)c2cnn(C)c2n1 [Example 27]
condition met

Same read-out for Cc1cc(N2CC[C@H](c3ccc(N4CCNCC4)cn3)[C@@H](C)C2)c2cnn(C)c2n1 [Example 35] ?
condition met
